tested on: Blastobacter sp. A 17 p-4; test: Promoters for the production of Blastobacter sp. A 17 p-4 decarbamylase; assay type: cell-based; conditions: 2 mM metal ion plus 0.15% (w/v) uracil in medium D, 4 days at 28° C.
Property name: decarbamylase yield of Blastobacter sp. A 17 p-4, effect of metal ions

   chemical_structure             assayed_system     result
0              [Mn+2]  Blastobacter sp. A 17 p-4  increased
1              [Co+2]  Blastobacter sp. A 17 p-4  increased
2              [Fe+2]  Blastobacter sp. A 17 p-4  increased
3              [Mg+2]  Blastobacter sp. A 17 p-4  increased
4               [Li+]  Blastobacter sp. A 17 p-4  increased
5               [Cs+]  Blastobacter sp. A 17 p-4  increased
6              [Al+3]  Blastobacter sp. A 17 p-4  increased
7              [Be+2]  Blastobacter sp. A 17 p-4  increased

* * *

system: decarbamylase of Blastobacter sp. A 17 p-4; test: Substrate specificity of decarbamylase, cells of Blastobacter sp. A 17 p-4; format: cell-based; details: 1% (w/v) substrate, 200 mM potassium phosphate, cell suspension, 24 hours at 30° C.
Property name: Substrate conversion, Blastobacter sp. A 17 p-4 (conversion to amino acids)

>>> print(df.to_string())
                                    compound           result
 0  O=C1NC(=O)C(c2ccccc2)N1 (racemic) [DL-5-Phenylhydantoin]    ++ (++: <50%)
 1  CC(C)[C@@H](NC(N)=O)C(=O)O [N-Carbamyl-D-valine]  +++ (+++: <80%)
 2  O=C1NC(=O)C(c2ccc(O)cc2)N1 (racemic) [DL-5-p-Hydroxyphenylhydantoin]    ++ (++: <50%)
 3  NC(=O)NCCC(=O)O [β-Ureidopropionic acid]        - (-: 0%)
 4  NC(=O)NC(CC(=O)O)C(=O)O (centres unmarked) [Ureidosuccinic acid]        - (-: 0%)
 5  NC(=O)N[C@H](Cc1ccccc1)C(=O)O [N-Carbamyl-D-phenylalanine, N-carbamyl-D-phenylalanine]  +++ (+++: <80%)
 6  NC(=O)N[C@H](CO)C(=O)O [N-Carbamyl-D-serine]        - (-: 0%)
 7  NC(=O)N[C@@H](C(=O)O)c1ccccc1 [N-Carbamyl-D-phenylglycine]  +++ (+++: <80%)
 8  CC1NC(=O)NC1=O (racemic) [DL-5-Methylhydantoin]    ++ (++: <50%)
 9  CN(CC(=O)O)C(N)=O [N-Carbamyl-sarcosine]        - (-: 0%)
10  CC(C)C[C@@H](NC(N)=O)C(=O)O [N-Carbamyl-D-leucine]  +++ (+++: <80%)
11  CSCCC(NC(N)=O)C(=O)O (racemic) [N-Carbamyl-DL-methionine, N-carbamyl-DL-methionine]    ++ (++: <50%)
12  CCCC(NC(N)=O)C(=O)O (racemic) [N-Carbamyl-DL-norvaline]    ++ (++: <50%)
13  NC(=O)N[C@@H](C(=O)O)c1ccc(O)cc1 [N-Carbamyl-D-p-hydroxyphenylglycine]    ++ (++: <50%)
14  C[C@@H](NC(N)=O)C(=O)O [N-Carbamyl-D-alanine]  +++ (+++: <80%)
15  C[C@@H](O)[C@H](NC(N)=O)C(=O)O (racemic) [N-Carbamyl-DL-threonine]        - (-: 0%)
16  CCCCC(NC(N)=O)C(=O)O (racemic) [N-Carbamyl-DL-norleucine]    ++ (++: <50%)

* * *

tested on: decarbamylase of Comamonas sp. E 222 C; assay: Substrate specificity of decarbamylase, cells of Comamonas sp. E 222 C; assay type: cell-based; conditions: 1% (w/v) substrate, 200 mM potassium phosphate, cell suspension, 24 hours at 30° C.
Property name: Substrate conversion, Comamonas sp. E 222 c (conversion to amino acids)

                                    compound             result
 0  NC(=O)NC(CC(=O)O)C(=O)O (centres unmarked) [Ureidosuccinic acid]          - (-: 0%)
 1  CCCC(NC(N)=O)C(=O)O (racemic) [N-Carbamyl-DL-norvaline]      ++ (++: <50%)
 2  NC(=O)N[C@H](CO)C(=O)O [N-Carbamyl-D-serine]        + (+: <10%)
 3  CC1NC(=O)NC1=O (racemic) [DL-5-Methylhydantoin]          - (-: 0%)
 4  CSCCC(NC(N)=O)C(=O)O (racemic) [N-Carbamyl-DL-methionine, N-carbamyl-DL-methionine]      ++ (++: <50%)
 5  CC(C)[C@@H](NC(N)=O)C(=O)O [N-Carbamyl-D-valine]  ++++ (++++: 100%)
 6  O=C1NC(=O)C(c2ccccc2)N1 (racemic) [DL-5-Phenylhydantoin]          - (-: 0%)
 7  O=C1NC(=O)C(c2ccc(O)cc2)N1 (racemic) [DL-5-p-Hydroxyphenylhydantoin]          - (-: 0%)
 8  NC(=O)N[C@@H](C(=O)O)c1ccc(O)cc1 [N-Carbamyl-D-p-hydroxyphenylglycine]    +++ (+++: <80%)
 9  C[C@@H](O)[C@H](NC(N)=O)C(=O)O (racemic) [N-Carbamyl-DL-threonine]        + (+: <10%)
10  NC(=O)NCCC(=O)O [β-Ureidopropionic acid]  ++++ (++++: 100%)
11  C[C@@H](NC(N)=O)C(=O)O [N-Carbamyl-D-alanine]  ++++ (++++: 100%)
12  NC(=O)N[C@@H](C(=O)O)c1ccccc1 [N-Carbamyl-D-phenylglycine]    +++ (+++: <80%)
13  CC(C)C[C@@H](NC(N)=O)C(=O)O [N-Carbamyl-D-leucine]  ++++ (++++: 100%)
14  CN(CC(=O)O)C(N)=O [N-Carbamyl-sarcosine]          - (-: 0%)
15  CCCCC(NC(N)=O)C(=O)O (racemic) [N-Carbamyl-DL-norleucine]      ++ (++: <50%)
16  NC(=O)N[C@H](Cc1ccccc1)C(=O)O [N-Carbamyl-D-phenylalanine, N-carbamyl-D-phenylalanine]  ++++ (++++: 100%)
